Test system: KRAS patient-derived spheroids with HUVEC/MSC, viability
protocol_text: Anticancer human tumor 941728-121-R-J1-PDC patient-derived lung adenocarcinoma cell line growth inhibition [KRAS2]
particulars: second compound 0.1 µM; first compound 0.1 µM; hits give low values
result_type: viability, T/C

- COC(=O)c1ccc2c(C(=Nc3ccc(N(C)C(=O)CN4CCN(C)CC4)cc3)c3ccccc3)c(O)[nH]c2c1 + CNCc1ccccc1-c1csc(C(C)Nc2nc(C)nc3cc(OC)c(OC)cc23)c1: 49.5%
- Cn1ncnc1[C@H]1c2n[nH]c(=O)c3cc(F)cc(c23)N[C@@H]1c1ccc(F)cc1 + C=CC(=O)N1CCN(c2nc(OCC3CCCN3C)nc3c2CCN(c2cccc4cccc(C)c24)C3)CC1CC#N: 15.8%
- CC(C)n1nc(-c2ccc3oc(N)nc3c2)c2c(N)ncnc21 + CNCc1ccccc1-c1csc(C(C)Nc2nc(C)nc3cc(OC)c(OC)cc23)c1: 31.4%
- COC(=O)c1ccc2c(C(=Nc3ccc(N(C)C(=O)CN4CCN(C)CC4)cc3)c3ccccc3)c(O)[nH]c2c1 + C=CC(=O)N1CCN(c2nc(=O)n(-c3c(C)ccnc3C(C)C)c3nc(-c4c(O)cccc4F)c(F)cc23)C(C)C1: 19.7%

---

System: KRAS patient-derived spheroids with HUVEC/MSC, viability
protocol_text: Anticancer human tumor 941728-121-R-J1-PDC cell line growth inhibition [KRAS2];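 further: spheroids exposed to agents for seven days before readout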
particulars: second compound 0.316 µM; first compound 0.1 µM; hits give low values
Class (by viability, T/C) -- low interval = under 20%, middle interval = from 20% up to 40%, high interval = 40% and over

* COc1cc2nccc(Oc3ccc(NC(=O)C4(C(=O)Nc5ccc(F)cc5)CC4)cc3)c2cc1OC + C=CC(=O)N1CCN(c2nc(=O)n(-c3c(C)ccnc3C(C)C)c3nc(-c4c(O)cccc4F)c(F)cc23)C(C)C1 | low interval
* COC(=O)c1ccc2c(C(=Nc3ccc(N(C)C(=O)CN4CCN(C)CC4)cc3)c3ccccc3)c(O)[nH]c2c1 + CNCc1ccccc1-c1csc(C(C)Nc2nc(C)nc3cc(OC)c(OC)cc23)c1 | high interval
* CC1(C)CCC(CN2CCN(c3ccc(C(=O)NS(=O)(=O)c4ccc(NCC5CCOCC5)c([N+](=O)[O-])c4)c(Oc4cnc5[nH]ccc5c4)c3)CC2)=C(c2ccc(Cl)cc2)C1 + CNCc1ccccc1-c1csc(C(C)Nc2nc(C)nc3cc(OC)c(OC)cc23)c1 | middle interval
* COc1cc2nccc(Oc3ccc(NC(=O)C4(C(=O)Nc5ccc(F)cc5)CC4)cc3)c2cc1OC + COc1cc2nc(C)nc(NC(C)c3cc(N)cc(C(F)(F)F)c3)c2cc1OC1CCOC1 | high interval
* CCN1CCN(Cc2ccc(Nc3ncc(F)c(-c4cc(F)c5nc(C)n(C(C)C)c5c4)n3)nc2)CC1 + COc1cc2nc(C)nc(NC(C)c3cc(N)cc(C(F)(F)F)c3)c2cc1OC1CCOC1 | middle interval
* CC1COCCN1c1cc(-c2ccnn2C)c2ccnc(-c3ccn[nH]3)c2n1 (centres undefined) + C=CC(=O)N1CCN(c2nc(=O)n(-c3c(C)ccnc3C(C)C)c3nc(-c4c(O)cccc4F)c(F)cc23)C(C)C1 | low interval
* COc1cc(Nc2ncc3c(n2)-c2ccc(Cl)cc2C(c2c(F)cccc2OC)=NC3)ccc1C(=O)O + CC1OCC2(CCN(c3cnc(Sc4ccnc(N)c4Cl)c(N)n3)CC2)C1N | high interval
* CC1(C)CCC(CN2CCN(c3ccc(C(=O)NS(=O)(=O)c4ccc(NCC5CCOCC5)c([N+](=O)[O-])c4)c(Oc4cnc5[nH]ccc5c4)c3)CC2)=C(c2ccc(Cl)cc2)C1 + C=CC(=O)N1CCN(c2nc(=O)n(-c3c(C)ccnc3C(C)C)c3nc(-c4c(O)cccc4F)c(F)cc23)C(C)C1 | low interval
* COC(=O)c1ccc2c(C(=Nc3ccc(N(C)C(=O)CN4CCN(C)CC4)cc3)c3ccccc3)c(O)[nH]c2c1 + C=CC(=O)N1CCN(c2nc(OCC3CCCN3C)nc3c2CCN(c2cccc4cccc(C)c24)C3)CC1CC#N | middle interval
